meta.source: patent US10183941B2

# Test method notes: Pharmacokinetic (PK) experiment in rats
# Type: in vivo
# Test parameters: male, SD, plasma, po; rat, intragastric 20 mg/kg
Measurement kind: half-life

>  <Molecule>
CC(=O)c1c(C)c2cnc(Nc3ccc(N4CCNCC4)cn3)nc2n(C2CCCC2)c1=O [PD-0332991, Palbociclib, reference compound]

>  <Result>
10 h

$$$$
>  <Molecule>
CC(=O)c1c(C)c2cnc(Nc3ccc(C4CCN(CCCS(C)(=O)=O)CC4)cn3)nc2n(C2CCCC2)c1=O

>  <Result>
5 h

$$$$

We next turn to a different molecule, shown below.
Per the records, this molecule ( "CC(=O)c1c(C)c2cnc(Nc3ccc(C4CCN(CCS(C)(=O)=O)CC4)cn3)nc2n(C2CCCC2)c1=O" ) has half-life equal to 1.5 h
